target: Ba/F3_KRAS^G12D cells (Homo sapiens, UniProt P01116, G12D, cells depend on it); experiment: Ba/F3 KRAS G12D cell proliferation assay (CellTiter-Glo); format: cell-based; conditions: treated for 3 days, cell-titer Glo, cell growth inhibition, read-out: BaF3_KRAS^G12D IC50
Sequence (P01116 whole entry G12D): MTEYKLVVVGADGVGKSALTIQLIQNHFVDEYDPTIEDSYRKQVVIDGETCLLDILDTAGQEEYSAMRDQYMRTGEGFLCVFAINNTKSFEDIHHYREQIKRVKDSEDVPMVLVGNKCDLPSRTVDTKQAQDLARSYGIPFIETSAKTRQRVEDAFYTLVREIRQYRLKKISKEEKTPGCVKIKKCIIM
PROPERTY_NAME: GI50

Consider the worked cases shown below.
CN(C)CCCOc1nc(N2CC3CCC(C2)N3)c2cc(Cl)c(-c3cc(O)cc4ccccc34)c(F)c2n1    0.5 to 5 µM
Oc1cc(-c2c(Cl)cc3c(N4CC5CCC(C4)N5)nc(OC[C@@]45CCCN4C[C@H](F)C5)nc3c2F)c2ccccc2c1 (single isomer, unassigned) [Compound 107]    < 0.5 µM
Oc1cccc(F)c1-c1c(Cl)cc2c(N3C4CCC3CNC4)nc(OCC34CCCN3CCC4)nc2c1F    > 5 µM
Cc1cc(N)nc(-c2c(Cl)cc3c(N4CC5CCC(C4)N5)nc(OC[C@@H]4CCCN4C)nc3c2F)c1    > 5 µM

Now, please, on to the next compound.
Task: Find the recorded GI50 belonging to Fc1c(-c2cccc3cccc(Cl)c23)c(Cl)cc2c(N3CC4CCC(C3)N4)nc(OCC34CCCN3CCC4)nc12 and report it.
Result: < 0.5 µM
